Measured boiling point values are reported for all entries that follow.
Just so you know, I need the unit written after the number.

// below: answered compounds
CN(C)c1ccccc1 : 193 °C
c1ccc(N=Nc2ccccc2)cc1 : 293 °C
CCC[C@@H](C)S : 113 °C
CC(C)CCNCCC(C)C : 188 °C
CCCSC : 95.6 °C
CCOCOCC : 88 °C

(Q) Would you mind telling me what boiling point value was observed for Cc1cc(Br)ccc1O ?
(A) 235 °C

(Q) What do we get for N#CCCc1ccccc1 ?
(A) 261 °C

(Q) What do we get for C=C(C)C(=O)Cl ?
(A) 96 °C

----------
Measured boiling point values are reported for all entries that follow.
Numeric only. Scale: °C

// below: answered compounds
C1CCC(NC2CCCCC2)CC1 : 256
CCOC(=O)NCc1ccccc1 : 230

Here is another compound to look at.
(Q) Would you mind telling me what boiling point value was observed for CCC(=O)OC(=O)CC ?
(A) 170
